This collection of values is drawn from patent US12258328B2.

# target_system: EGFR del19/C797S (Homo sapiens, UniProt P00533, C797S/DEL746-750)
# Sequence (P00533 with tags, fused parts or gaps DEL746-750/C797S): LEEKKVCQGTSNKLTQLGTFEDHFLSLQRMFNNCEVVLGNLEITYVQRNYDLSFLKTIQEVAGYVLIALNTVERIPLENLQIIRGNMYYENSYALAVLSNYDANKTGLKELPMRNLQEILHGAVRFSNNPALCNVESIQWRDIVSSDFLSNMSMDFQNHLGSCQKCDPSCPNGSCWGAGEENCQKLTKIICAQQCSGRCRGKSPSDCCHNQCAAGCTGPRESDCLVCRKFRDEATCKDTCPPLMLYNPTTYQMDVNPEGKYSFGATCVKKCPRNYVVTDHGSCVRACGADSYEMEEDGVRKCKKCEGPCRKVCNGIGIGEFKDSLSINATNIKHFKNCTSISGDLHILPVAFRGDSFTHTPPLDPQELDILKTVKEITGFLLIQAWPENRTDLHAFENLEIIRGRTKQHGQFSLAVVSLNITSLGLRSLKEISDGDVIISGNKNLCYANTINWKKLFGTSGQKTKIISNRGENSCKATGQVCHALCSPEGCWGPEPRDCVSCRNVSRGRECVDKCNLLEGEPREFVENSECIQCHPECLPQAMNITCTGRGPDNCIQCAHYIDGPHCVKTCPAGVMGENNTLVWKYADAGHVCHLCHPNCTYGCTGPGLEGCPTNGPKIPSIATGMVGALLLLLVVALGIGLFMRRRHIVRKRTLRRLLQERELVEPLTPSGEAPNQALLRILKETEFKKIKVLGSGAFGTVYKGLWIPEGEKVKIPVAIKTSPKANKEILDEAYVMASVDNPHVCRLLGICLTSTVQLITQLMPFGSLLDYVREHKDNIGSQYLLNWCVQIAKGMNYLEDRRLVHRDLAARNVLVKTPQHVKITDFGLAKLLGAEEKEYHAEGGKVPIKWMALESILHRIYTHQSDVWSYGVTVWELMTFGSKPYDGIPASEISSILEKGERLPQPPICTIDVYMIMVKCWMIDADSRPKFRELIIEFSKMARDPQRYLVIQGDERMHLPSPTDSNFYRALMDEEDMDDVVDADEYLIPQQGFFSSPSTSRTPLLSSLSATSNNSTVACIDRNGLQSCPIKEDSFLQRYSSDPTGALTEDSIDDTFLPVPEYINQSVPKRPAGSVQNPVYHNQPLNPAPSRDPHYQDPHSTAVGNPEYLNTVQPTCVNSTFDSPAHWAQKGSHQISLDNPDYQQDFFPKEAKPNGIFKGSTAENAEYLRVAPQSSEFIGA
# experiment: Biochemical EGFR kinase assay (Lance Ultra TR-FRET), double mutant del19/C797S
# condition_details: IC50 del19/C797S, 100 μM ATP
quantity_name: log10 IC50 (log10 of the value in nM)
Record value = log10 of IC50 given in nM.

Answered examples (2):
CN(C)C[C@H]1CC[C@@H](Nc2cc(Nc3ccnc(-c4cnn(S(=O)(=O)C5CC5)c4)n3)ncc2-c2ccc(S(C)(=O)=O)cn2)CC1 [Example 159]    -0.70
O=S(=O)(C1CC1)n1cc(-c2nccc(Nc3cc(N[C@H]4CCC[C@H](CO)C4)c(-c4ccc(C(O)C(F)(F)F)cn4)cn3)n2)cn1 (stereo partly drawn) [Example 228]    1.16

Task item: Identify the reported log10 IC50 for the following entry. C[C@]1(O)CC[C@@H](Nc2cc(Nc3ccnc(-c4cnn(S(=O)(=O)C5CC5)c4)n3)ncc2-c2cc(NCCN3CCOCC3)ccn2)CC1 [Example 279]
Reply: 0.70

Task item: Identify the reported log10 IC50 for the following entry. O=S(=O)(C1CC1)n1cc(-c2nccc(Nc3cc(N[C@H]4CC[C@@H](CCO)CC4)c(-c4ccc(CC(F)(F)F)cn4)cn3)n2)cn1 [Example 223]
Reply: 1.16

Task item: Identify the reported log10 IC50 for the following entry. O=S(=O)(C1CC1)n1cc(-c2nccc(Nc3cc(N[C@H]4CC[C@@H](CO)CC4)c(-c4cccc(CC(F)(F)F)n4)cn3)n2)cn1 [Example 246]
Reply: 1.32

Task item: Identify the reported log10 IC50 for the following entry. CN(C)CCOc1ccc(-c2cnc(Nc3ccnc(-c4cnn(S(=O)(=O)C5CC5)c4)n3)cc2N[C@H]2CC[C@@](C)(O)CC2)nc1 [Example 208]
Reply: -0.52
